For each record, write down the corresponding pIC50.
# TARGET_DESC: Bifunctional epoxide hydrolase 2 (Homo sapiens)
# Sequence (P34913 whole entry): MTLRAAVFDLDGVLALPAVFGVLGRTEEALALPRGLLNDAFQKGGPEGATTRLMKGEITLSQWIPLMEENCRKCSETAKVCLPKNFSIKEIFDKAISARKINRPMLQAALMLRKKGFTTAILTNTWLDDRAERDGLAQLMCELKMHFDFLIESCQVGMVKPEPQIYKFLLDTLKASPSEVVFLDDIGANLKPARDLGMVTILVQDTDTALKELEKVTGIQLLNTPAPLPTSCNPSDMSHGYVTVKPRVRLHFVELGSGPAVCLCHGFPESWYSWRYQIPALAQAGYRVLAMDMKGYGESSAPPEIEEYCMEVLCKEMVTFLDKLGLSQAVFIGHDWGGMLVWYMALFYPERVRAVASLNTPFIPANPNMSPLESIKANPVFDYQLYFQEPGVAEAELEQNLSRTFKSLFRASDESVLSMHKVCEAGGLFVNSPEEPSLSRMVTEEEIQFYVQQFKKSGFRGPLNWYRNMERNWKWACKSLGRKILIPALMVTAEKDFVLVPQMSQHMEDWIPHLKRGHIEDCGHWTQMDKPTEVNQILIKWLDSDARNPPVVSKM
# ASSAY_INFO: Inhibition of human sEH (1 to 555 residues) expressed in Escherichia coli BL21-(DE3) using PHOME substrate incubated for 30 to 45 mins by fluorescence based assay
// field semantics: pIC50 = negative decimal log of concentration (mol/L)

Specify measured pIC50 for C[C@H](C#Cc1cccc(C(=O)NCC[C@@H](c2ccc(F)cc2)c2ccc(C(F)(F)F)cc2)c1)N(O)C(N)=O .
8.52

Specify measured pIC50 for C[C@H](C#Cc1cccc(C(=O)NCCC(c2ccccc2)c2ccc(NS(C)(=O)=O)cc2)c1)N(O)C(N)=O (stereo not given in full) .
8.52

Specify measured pIC50 for Cc1ccc(C(=O)NCc2ccccc2C(F)(F)F)cc1C#CC(C)N(O)C(N)=O (stereo not given) .
5.51

Specify measured pIC50 for CC(C#Cc1cccc(C(=O)NCc2ccccc2C(F)(F)F)c1)N(O)C(N)=O (stereo not given) .
7.05

Specify measured pIC50 for C[C@@H](C#Cc1cccc(C(=O)NCc2ccccc2C(F)(F)F)c1)N(O)C(N)=O .
7.22

Specify measured pIC50 for CC(C#Cc1cccc(C(=O)NCCC(c2ccccc2)c2ccc(C(F)(F)F)cc2)c1)N(O)C(N)=O (stereo not given) .
8.57

Specify measured pIC50 for C[C@H](C#Cc1cccc(C(=O)NCCC(c2ccccc2)c2ccc(Cl)c(Cl)c2)c1)N(O)C(N)=O (stereo not given in full) .
8.68

Specify measured pIC50 for CC(C)C(C#Cc1cccc(C(=O)NCc2ccccc2C(F)(F)F)c1)N(O)C(N)=O (stereo not given) .
7.96

Specify measured pIC50 for CC(C#Cc1ccc(C(=O)NCc2ccccc2C(F)(F)F)cc1)N(O)C(N)=O (stereo not given) .
5.59

Specify measured pIC50 for NC(=O)N(O)CC#Cc1cccc(C(=O)NCc2ccccc2C(F)(F)F)c1 .
7.30

Specify measured pIC50 for COc1ccc(CNC(=O)c2cccc(C#CC(C)N(O)C(N)=O)c2)c(C(F)(F)F)c1 (stereo not given) .
8.40

Specify measured pIC50 for C[C@H](C#Cc1cccc(C(=O)NCCC(c2ccc(F)cc2)c2ccc(OC(F)(F)F)cc2)c1)N(O)C(N)=O (stereo not given in full) .
8.62

Specify measured pIC50 for CC(C#Cc1cccc(C(=O)NCc2cccc(F)c2)c1)N(O)C(N)=O (stereo not given) .
5.05

Specify measured pIC50 for C[C@H](C#Cc1cccc(C(=O)NCCC(c2ccccc2)c2ccc(S(N)(=O)=O)cc2)c1)N(O)C(N)=O (stereo not given in full) .
8.62

Specify measured pIC50 for C[C@H](C#Cc1cccc(C(=O)NCCN(c2ccccc2)c2ccccc2)c1)N(O)C(N)=O .
8.30

Specify measured pIC50 for CC(C#Cc1cccc(C(=O)NCc2ccc(F)cc2C(F)(F)F)c1)N(O)C(N)=O (stereo not given) .
7.54

Specify measured pIC50 for CC(C#Cc1cccc(C(=O)NCCc2ccc(F)cc2)c1)N(O)C(N)=O (stereo not given) .
5.92

Specify measured pIC50 for CC(C#Cc1cncc(C(=O)NCc2ccccc2C(F)(F)F)c1)N(O)C(N)=O (stereo not given) .
6.30

Specify measured pIC50 for CC(C#Cc1cccc(C(=O)NCCC(c2ccccc2)c2ccc(F)cc2)c1)N(O)C(N)=O (stereo not given) .
8.70

Specify measured pIC50 for CC(C#Cc1cccc(C(=O)NCCC(c2ccccc2)c2ccc(Cl)cc2)c1)N(O)C(N)=O (stereo not given) .
8.70

Specify measured pIC50 for CC(C#Cc1cccc(C(=O)NCc2ccccc2OC(F)(F)F)c1)N(O)C(N)=O (stereo not given) .
7.80

Specify measured pIC50 for C[C@H](C#Cc1cccc(C(=O)NCc2ccccc2C(F)(F)F)c1)N(O)C(N)=O .
7.22

Specify measured pIC50 for CS(=O)(=O)c1ccc(C(CCNC(=O)c2ccc(C#N)nc2)c2ccc(F)cc2)cc1 (stereo not given) .
8.22

Specify measured pIC50 for CC(C#Cc1ccc(C(=O)NCc2ccccc2C(F)(F)F)o1)N(O)C(N)=O (stereo not given) .
6.22

Specify measured pIC50 for O=C(Cc1ccc(Oc2nc3ccccc3s2)cc1F)NCCc1ccc(F)cc1 .
6.89

Specify measured pIC50 for CNc1nc(C)nc(N2CCC(C(=O)NCc3ccc(F)cc3C(F)(F)F)CC2)n1 .
8.52

Specify measured pIC50 for C[C@H](C#Cc1cccc(C(=O)NCCC(c2ccc(F)cc2)c2ccc(F)cc2)c1)N(O)C(N)=O .
8.92

Specify measured pIC50 for CCCC(C#Cc1cccc(C(=O)NCc2ccccc2C(F)(F)F)c1)N(O)C(N)=O (stereo not given) .
7.92

Specify measured pIC50 for CC(C)CC(C#Cc1cccc(C(=O)NCc2ccccc2C(F)(F)F)c1)N(O)C(N)=O (stereo not given) .
8.30

Specify measured pIC50 for C[C@H](C#Cc1ccc(Cc2ccc(F)cc2)s1)N(O)C(N)=O .
5.57
